target: T1, Anti-CD28 Fab (SEQ ID NOs: 696, 697); assay: phage binding ELISA; Fab-coated wells pre-incubated with CD28 antigen as competitor, phage detected with anti-M13-HRP
T1 construct: In the phage ELISA the Fab was biotinylated and captured on neutravidin coated plates
T1 sequence (VH, as listed by the source, chain 1 of 2): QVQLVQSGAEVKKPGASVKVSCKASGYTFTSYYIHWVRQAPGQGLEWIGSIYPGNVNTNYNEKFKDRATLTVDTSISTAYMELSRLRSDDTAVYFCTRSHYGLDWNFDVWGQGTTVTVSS
T1 sequence (VL, as listed by the source, chain 2 of 2): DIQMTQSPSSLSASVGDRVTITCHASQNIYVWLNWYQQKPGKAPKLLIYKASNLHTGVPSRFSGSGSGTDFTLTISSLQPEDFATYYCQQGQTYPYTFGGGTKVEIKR
Measured Anti-CD28 Fab signal in the presence of CD28 by item
quantity-measured: Anti-CD28 Fab signal in the presence of CD28

binder="TCSAGAMYSWPLCI (Peptide-92 library clone) [Phage-1677]" obs_value=0.08
binder="TCAAGASWDWPFCF (Peptide-92 library clone) [Phage-1684]" obs_value=0.08
binder="TCSAGAMYNWPECF (Peptide-92 library clone) [Phage-1676]" obs_value=0.08
